Hey, just so you know, these numbers are from ChEMBL document CHEMBL4689842.

Test system: HEK-293T
Test: Multiplex assay against HEK293T
Format: toxicity, cell-based
Conditions: human, 12 h, 1 µM, compound concentration 1 uM, replicate 2
Cut-off 200 on Total Cell Count: below means criterion met, at or above means criterion not met.

[
  {
    "molecule": "CN(c1cc(C(F)(F)F)nc(OCCC(=O)O)n1)c1cccc2c1CCC2",
    "target or system": "HEK-293T",
    "category label": "criterion met"
  }
]

Please look at the following molecule next.
Incoming: Lab note: confirm whether the reported Total Cell Count for this molecule is below 200, equality not counting. molecule: Cl.Cn1c2c(c3ccc(Cl)c(Cl)c31)C(C#N)C1(CCNCC1)NC2=O (stereo not given)
Outgoing: criterion not met
